Overview of recorded isoTOP-ABPP ratio (R) at liganded lysine P55263_K88 for various compounds
TARGET SYSTEM: ADK Adenosine kinase (Homo sapiens, UniProt P55263)
Construct: isoTOP-ABPP experiments performed in cell lysates (in vitro); endogenous in cells; host or cells: soluble proteome of human cancer cell lines (MDA-MB-231, Ramos, Jurkat)
Sequence (P55263 whole entry): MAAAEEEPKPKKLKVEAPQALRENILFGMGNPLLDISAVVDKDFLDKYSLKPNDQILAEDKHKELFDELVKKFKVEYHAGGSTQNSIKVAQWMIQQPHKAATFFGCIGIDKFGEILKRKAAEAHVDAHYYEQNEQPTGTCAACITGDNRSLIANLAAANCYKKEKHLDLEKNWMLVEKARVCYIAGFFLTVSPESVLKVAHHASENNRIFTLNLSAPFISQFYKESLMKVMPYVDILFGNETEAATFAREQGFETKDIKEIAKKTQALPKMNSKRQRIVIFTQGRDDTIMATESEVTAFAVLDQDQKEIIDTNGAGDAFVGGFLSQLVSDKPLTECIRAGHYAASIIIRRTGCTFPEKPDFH
ASSAY METHOD TEXT: competitive isoTOP-ABPP
Type: binding
CONDITION SUMMARY: 50 uM, in vitro, sol, 231
Answer with a number only.

compound="CC(C)(C)OC(=O)NCCCC(=O)Oc1ccc([N+](=O)[O-])cc1[N+](=O)[O-] [fragment 41]" recorded_number=1.5
compound="O=C(CC12CC3CC(CC(C3)C1)C2)Oc1ccc([N+](=O)[O-])cc1[N+](=O)[O-] [fragment 38]" recorded_number=0.9
compound="O=C(CCc1coc2cc(F)ccc2c1=O)Oc1ccc([N+](=O)[O-])cc1[N+](=O)[O-] [fragment 36]" recorded_number=20.0
compound="O=C(Oc1ccc([N+](=O)[O-])cc1[N+](=O)[O-])c1ccc2ccccc2n1 [fragment 35]" recorded_number=0.6
compound="CC(=O)Oc1ccc([N+](=O)[O-])cc1[N+](=O)[O-] [fragment 43, 2,4-Dinitrophenyl acetate]" recorded_number=0.9
compound="O=C(Oc1ccc([N+](=O)[O-])cc1[N+](=O)[O-])C(c1ccccc1)(c1ccccc1)c1ccccc1 [fragment 42, 2,4-Dinitrophenyl 2,2,2-triphenylacetate]" recorded_number=1.0

Quick one: isoTOP-ABPP ratio (R) at liganded lysine P55263_K88 of O=C(Oc1ccc([N+](=O)[O-])cc1[N+](=O)[O-])c1ccccc1Nc1cccc(C(F)(F)F)c1 [fragment 40] ?
0.9

Quick one: isoTOP-ABPP ratio (R) at liganded lysine P55263_K88 of O=C(Oc1ccc([N+](=O)[O-])cc1[N+](=O)[O-])C1CCN(C(=O)OCc2ccccc2)CC1 [fragment 34] ?
20.0

Quick one: isoTOP-ABPP ratio (R) at liganded lysine P55263_K88 of O=C(Oc1ccc([N+](=O)[O-])cc1[N+](=O)[O-])c1ccc(Oc2ccccc2)cc1 [fragment 39, 2,4-Dinitrophenyl 4-phenoxybenzoate] ?
0.9

Quick one: isoTOP-ABPP ratio (R) at liganded lysine P55263_K88 of O=C(Oc1ccc([N+](=O)[O-])cc1[N+](=O)[O-])c1ccc(-c2ccccc2)cc1 [fragment 37] ?
0.8
